# Target Of Assay: Tau-tubulin kinase 2 (Homo sapiens, UniProt Q6IQ55)
# Sequence (Q6IQ55 whole entry): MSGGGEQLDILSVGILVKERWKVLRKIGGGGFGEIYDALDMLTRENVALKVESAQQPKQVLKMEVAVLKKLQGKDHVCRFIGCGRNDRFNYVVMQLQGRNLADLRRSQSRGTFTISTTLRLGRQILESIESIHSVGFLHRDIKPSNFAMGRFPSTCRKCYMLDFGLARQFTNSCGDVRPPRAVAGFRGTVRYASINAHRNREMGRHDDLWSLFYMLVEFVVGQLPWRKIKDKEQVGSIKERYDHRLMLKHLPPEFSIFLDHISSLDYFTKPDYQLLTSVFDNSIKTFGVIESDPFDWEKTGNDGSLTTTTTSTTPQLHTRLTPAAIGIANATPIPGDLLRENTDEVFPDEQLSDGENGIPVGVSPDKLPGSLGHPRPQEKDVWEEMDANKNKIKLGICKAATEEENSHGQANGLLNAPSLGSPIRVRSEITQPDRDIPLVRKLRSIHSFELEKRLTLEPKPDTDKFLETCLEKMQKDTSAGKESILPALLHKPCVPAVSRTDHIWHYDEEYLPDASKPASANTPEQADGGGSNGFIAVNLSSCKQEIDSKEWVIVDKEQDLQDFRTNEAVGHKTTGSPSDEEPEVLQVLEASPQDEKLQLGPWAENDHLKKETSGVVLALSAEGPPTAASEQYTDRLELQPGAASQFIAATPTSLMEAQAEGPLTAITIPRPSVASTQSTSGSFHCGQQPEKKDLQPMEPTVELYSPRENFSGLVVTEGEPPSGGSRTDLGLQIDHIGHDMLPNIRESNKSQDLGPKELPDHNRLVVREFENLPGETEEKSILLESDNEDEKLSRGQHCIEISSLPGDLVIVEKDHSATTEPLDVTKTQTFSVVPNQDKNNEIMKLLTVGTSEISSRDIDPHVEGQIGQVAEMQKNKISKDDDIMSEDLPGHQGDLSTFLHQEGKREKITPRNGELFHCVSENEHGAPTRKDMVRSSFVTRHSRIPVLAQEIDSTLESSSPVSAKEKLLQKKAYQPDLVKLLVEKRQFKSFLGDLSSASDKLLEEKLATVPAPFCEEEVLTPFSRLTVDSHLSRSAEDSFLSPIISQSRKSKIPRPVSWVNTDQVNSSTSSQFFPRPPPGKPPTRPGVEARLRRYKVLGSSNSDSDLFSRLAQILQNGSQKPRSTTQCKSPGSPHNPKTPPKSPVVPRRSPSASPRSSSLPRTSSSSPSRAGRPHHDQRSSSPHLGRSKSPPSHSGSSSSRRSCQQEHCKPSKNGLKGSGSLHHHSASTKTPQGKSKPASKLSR
Property Measured: pIC50
Please treat pIC50 as minus the base-10 logarithm of the molar concentration.

QUERY: Form entry - test system: Tau-tubulin kinase 2 (Homo sapiens, UniProt Q6IQ55); read-out: pIC50; compound: CC1(N)CCN(Cc2ccn3ncnc(Nc4cc(O)cc(Br)c4)c23)CC1
RESULT: 8.80
